Tested on: SW-620 colon
measurement protocol: NCI-60 one-dose screen, 48 h (100 = growth as untreated, 0 = no growth, -100 = all killed)
test settings: 10 µM unless noted
Compounds without any hit were thinned out: in the full panel of roughly 83,000, 20% have a hit.
measured parameter: growth (%)
Answers are plain numbers, in %.

compound | value reported
Clc1cccc(N/N=C/c2c[nH]c3ccc(Br)cc23)n1 | 6.71
Cc1cccc(NC(=O)CN2CCN(c3ncnc4c3cnn4-c3ccccc3)CC2)c1 | 92
Cc1ccc([C@H]2C(C(=O)c3ccc(Cl)cc3)C3(N[C@@H]2c2ccccc2)C(=O)Nc2ccc(Cl)cc23)cc1 (some centres undefined) | 64.1
COc1ccc(C(=O)/C=C/c2cccc3ccccc23)cc1S(N)(=O)=O | -16.1
CCOC(=O)COc1c(OC)c(OC)cc2oc(-c3cccc(C(=O)Nc4ccc(Cl)cc4)c3)cc(=O)c12 | 37.6

# per-item lookup of growth; items listed below
1. COc1ccc2c(c1)c(/C=N/Nc1ccc3ccccc3n1)cn2C
2. Clc1ccc(-c2ccc(OCCCN3CCN(c4ccncc4)CC3)cc2)cc1
3. COc1ccc2[nH]cc(-c3nnc(N)nc3-c3cn(C)c4ncc(Br)cc34)c2c1
4. C=C1CCC2C3(C)COC(c4ccccc4)OC3CCC2(C)C1CC(Sc1ccccc1)C1=CCOC1=O (centres undefined)

[-67.3, -8.83, 87.9, 14.8]

Hi, could you look up growth for each item in my list?
1. CC1CN(c2oc(-c3ccc([N+](=O)[O-])cc3)nc2C#N)CC(C)O1 (centres undefined)
2. O=C1C(=Nc2ccc(F)c(Cl)c2)c2cccc3cccc1c23
3. C#CCOc1cc(N(CC)CC)ccc1C(C(=O)NC(C)(C)C)N(C(=O)C1CCc2cc(F)ccc2O1)c1ccc(F)c(Cl)c1 (centres undefined)
4. O=C1NC(=O)c2c1c1c3cc(Br)ccc3[nH]c1c1oc3ccc(F)cc3c21
5. Cn1cc(-c2cc(N)n3nc(-c4cn(C)c5ncccc45)cc3n2)c2cccnc21

1: 102; 2: 35.8; 3: 74.3; 4: 3.59; 5: 71.7

Values were extracted from PubChem BioAssay (NCI).
